Tested on: C. albicans
Assay: MIC90 microdilution (EUCAST), C. albicans
Format: cell-based
Conditions: Candida albicans, 24 h
Below, each entry is listed alongside its reported MIC90.
Use µg/mL as the unit, but write only the number.

CCCCCCCCN1CCC(N2CCc3cc(OC)c(OC)cc3C2)CC1 | 32

Query compound follows.
IN: Given the entry CC(C)=CCC/C(C)=C/CN1CCC(N2CCC3CCCCC3C2)CC1 (centres unmarked) , report its measured MIC90.
OUT: 32

----------
Below, each entry is listed alongside its reported MIC90.
Tested on: A. fumigatus (A65)

Sample records with MIC90:
CCCCCCCCCCCCN1CCC(N2CCC3CCCCC3C2)CC1 (racemic) | 32 µg/mL
CC(C)=CCC/C(C)=C/CN1CCC(N2CCC3CCCCC3C2)CC1 (stereo not drawn) | > 32 µg/mL
CCCCCCCCCCCCN1CCC(N2CCc3cc(OC)c(OC)cc3C2)CC1 | > 32 µg/mL
CCCCN1CCC(N2CCc3cc(OC)c(OC)cc3C2)CC1 | > 32 µg/mL

Query molecule follows.
IN: Item COc1cc2c(cc1OC)CN(C1CCN(Cc3ccccc3)CC1)CC2 with A. fumigatus (A65) - MIC90?
OUT: > 32 µg/mL

----------
Tested on: C. albicans
Assay: MIC90 microdilution (EUCAST), C. albicans
Type: cell-based
Details: Candida albicans, 24 h
Below, each entry is listed alongside its reported MIC90.
Use µg/mL as the unit, but write only the number.

CCCCCCCCCCCCN1CCC(N2CCc3cc(OC)c(OC)cc3C2)CC1 | 4

IN: Given the entry CC(C)=CCCC(C)CCN1CCC(N2CCC3CCCCC3C2)CC1 (racemic) , report its measured MIC90.
OUT: 16

----------
Assay: MTT cytotoxicity assay against HL 60 cells
Assay type: cell-based
Conditions: human, HL-60 cells (human leukemia cells); HL 60 cell line; MTT assay; read-out: IC50 cytotoxicity
MEASURED_PROPERTY: IC50 (µg/mL)
Use µg/mL as the unit, but write only the number.

CCC(C)(C)c1ccc(CC(C)CN2C[C@@H](C)O[C@@H](C)C2)cc1 (some centres unmarked) [Amorolfine, reference compound] | 17
CCCCCCCCN1CCC(N2CCC3CCCCC3C2)CC1 (racemic) | 75
CC(C)=CCC/C(C)=C/CN1CCC(N2CCC3CCCCC3C2)CC1 (centres unmarked) | 26

Query compound follows.
IN: Given the entry CC[C@@H]([C@H](C)O)n1ncn(-c2ccc(N3CCN(c4ccc(OC[C@@H]5CO[C@@](Cn6cncn6)(c6ccc(F)cc6F)C5)cc4)CC3)cc2)c1=O [Posaconazole, reference compound] , report its measured IC50.
OUT: 5

----------
Below, each entry is listed alongside its reported IC50.
Test: MTT cytotoxicity assay against HL 60 cells
Type: cell-based
Conditions: human, HL-60 cells (human leukemia cells); HL 60 cell line; MTT assay; read-out: IC50 cytotoxicity
Use µg/mL as the unit, but write only the number.

Sample records with IC50:
COc1cc2c(cc1OC)CN(C1CCN(CCC(C)CCC=C(C)C)CC1)CC2 (racemic) | 75
CC(C)=CCCC(C)CCN1CCC(N2CCC3CCCCC3C2)CC1 (racemic) | 17
CCCCCCCCCCCCN1CCC(N2CCc3cc(OC)c(OC)cc3C2)CC1 | 6

Query compound follows.
IN: Given the entry CCCCCCCCCCCCN1CCC(N2CCC3CCCCC3C2)CC1 (racemic) , report its measured IC50.
OUT: 23
